assay: Standard protocol for determination of kcat and KM (continuous spectrophotometric assay, Acetyl CoA hydrolysis at 235 nm); assay type: biochemical; details: purified protein; about 23° C.; 20 mM HEPES pH 6.8, 10% ethylene glycol, 0.2 mM acetyl CoA
Reported Kcat by item:
Write the number in s⁻¹ without appending the unit.

Answered examples (5):
Molecule	Kcat [s⁻¹]
SEQ ID NO: 476: GAT polypeptide (protein, 1_3A2, GAT polypeptide) MIEVKPINAEDTYELRHRILRPNQPIEACMYESDLLRGAFHLGGFYRGKLISIASFHQAEHSDLQGQKQYQLRGMATLEGYREQKAGSSLIRHAEEILRKKGADMLWCNARTTAAGYYKRLGFSEQGEVFDTPPVGPHILMYKRIT	3.02
SEQ ID NO: 296: GAT polypeptide (protein, 12F5, GAT polypeptide) MIEVKPINAEDTYEIRHRILRPNQPLEACMYETDLLGGTFHLGGYYQGKLISIASFHKAEHSELEGQKQYQLRGMATLEGYREQKAGSTLIRHAEELLRKKGADLLWCNARTSVSGYYKKLGFSEQGGIYDIPPIGPHILMYKKLT	0.0517
SEQ ID NO: 478: GAT polypeptide (protein, 1_3F3, GAT polypeptide) MIEVKPINAEETYELRQRILRPNQPIEACMYESDLLRGSFHLGGFYRGQLISIASFHQAEHSELQGQKQYQLRGMATLEGYREQKAGSTLIKHAEEILRKKGADLLWCNARTSAAGYYKRLGFSEHGEIFDTPPVGPHILMYKRIT	2.78
SEQ ID NO: 308: GAT polypeptide (protein, 14_10H9, GAT polypeptide) MIEVKPINAEDTYEIRHRILRPNQPLEACKYETDLLRGAFHLGGYYRGKLVSIASFHQAEHPELEGQKQYQLRGMATLEGYREQKAGSTLIRHAEELLRKKGADLLWCNARTSASGYYKKLGFSEQGEVYDTPPVGPHILMYKKLT	2.12
SEQ ID NO: 492: GAT polypeptide (protein, 3_8G11, GAT polypeptide) MLEVKPINAEDTYELRHRILRPNQPIEVCMYESDLLRGAFHLGGYYRGKLISIASFHQAEHSELQGQKQYQLRGMATLEGYREQKAGSSLIKHAEEILRKRGADLLWCNARTSASGYYKKLGFSEQGEIFETPPVGPHILMYKRIT	1.652

Continue with the molecule presented below.
Reported Kcat ( SEQ ID NO: 410: GAT polypeptide (protein, 6_6D5, GAT polypeptide) MIEVKPINAEDAYEIRHRILRPNQPLEACKYETDLLGGTFHLGGYYRGKLISIASFHQAEHSELEGQKQYQLRGMATLEGYREQKAGSTLIRHAEELLRKKGADLLWCNARTSASGYYKKLGFSEQGGVYDIPPVGPHILMYKKLT ) = 0.922

These data points were gathered from patent US8008547B2.
